These entries and their values trace back to the supplement of paper PMC6992640.

Listed below: cell viability values for each entry.
Tested on: HCI13 (cells of an ER-positive luminal breast cancer xenograft)
Assay: cell viability (% of vehicle); higher = less cytotoxic
Details: 10 µM; 72 h
A bare number is all that is needed in reply.

The examples below pair each entry with its known result.
CN(C)CCN1C(=O)c2cccc3cc(N)cc(c23)C1=O [Amonafide]    64.7
O=c1ccc2ccccc2o1 [Coumarin]    102
Cc1cc(-n2c(=O)[nH]c(=O)n(C)c2=O)ccc1Oc1ccc(SC(F)(F)F)cc1 [Toltrazuril]    117

// assay HCI13, entry Nc1ccc(C(=O)[O-])c(O)c1.O.O.[Na+] [Sodium 4-Aminosalicylate] , cell viability value = 96.8

// assay HCI13, entry CC(C)NCC(O)COc1ccc(CCOCC2CC2)cc1.Cl (stereo unspecified) [Betaxolol HCl] , cell viability value = 87

---

Test system: WHIM30 (cells of a triple-negative basal-like breast cancer xenograft);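 further: cells dissociated from PDX tumors propagated in female NSG mouse mammary fat pads, vehicle control 0.1% DMSO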
Assay: cell viability (% of vehicle); higher = less cytotoxic
Conditions: 1 µM; 72 h
Listed below: cell viability values for each entry.
A bare number is all that is needed in reply.

The examples below pair each entry with its known result.
CCN(CC)CCCC(C)Nc1ccnc2cc(Cl)ccc12.O=P(O)(O)O.O=P(O)(O)O (stereo not drawn) [Chloroquine diphosphate]    81.2
CNCCCC12CCC(c3ccccc31)c1ccccc12.Cl [Maprotiline HCl]    83.3

In the following, a different compound is considered.
In plain terms, CNCCC(Oc1cccc2ccccc12)c1cccs1.Cl (stereo not drawn) [Duloxetine HCl] has a documented cell viability of 79.7

---

Tested on: HCI03 (cells of an ER-positive luminal breast cancer xenograft)
Assay: cell viability (% of vehicle); higher = less cytotoxic
Conditions: 10 µM; 72 h
ASSAY_ENDPOINT: cell viability
A bare number is all that is needed in reply.

CCCCCOc1ccc(-c2cc(-c3ccc(C(=O)NC4CC(O)C(O)NC(=O)C5C(O)C(C)CN5C(=O)C(C(O)CC(N)=O)NC(=O)C(C(O)C(O)c5ccc(O)c(OS(=O)(=O)[O-])c5)NC(=O)C5CC(O)CN5C(=O)C(C(C)O)NC4=O)cc3)no2)cc1.[Na+] (configuration not stated) [Micafungin sodium]    96.4
CCCSc1nc(NC2CC2c2ccc(F)c(F)c2)c2nnn(C3CC(OCCO)C(O)C3O)c2n1 (configuration not stated)    122
CNC(=O)C(Cc1c[nH]c2ccccc12)NC(=O)C(CC(=O)NO)CC(C)C (configuration not stated)    116
Cc1c(-c2cnccn2)ssc1=S    113
COc1cc(OC)c(C(=O)CCCN2CCCC2)c(OC)c1.Cl [Buflomedil HCl]    131
CC(C)NCC(O)COc1cccc2ccccc12.Cl (configuration not stated) [Propranolol HCl]    104

In the following, a different compound is considered.
In plain terms, CCOC(=O)NC1CCC2C(C1)CC1C(=O)OC(C)C1C2C=Cc1ccc(-c2cccc(F)c2)cn1 (configuration not stated) has a documented cell viability of 121

---

Listed below: cell viability values for each entry.
Test system: HCI16 (cells of a triple-negative basal-like breast cancer xenograft)
Experiment: cell viability (% of vehicle); higher = less cytotoxic
Settings: 10 µM; 72 h
A bare number is all that is needed in reply.

The examples below pair each entry with its known result.
CCN(CC)CCOC(=O)c1ccc(N)cc1 [Procaine]    102
COc1ccc(C2(C#N)CCC(C(=O)O)CC2)cc1OC1CCCC1 (stereo not given) [Cilomilast]    146
Cc1cnc(C(=O)NCCc2ccc(S(=O)(=O)NC(=O)NC3CCCCC3)cc2)cn1 [Glipizide]    99.1
CCCC1CC(C(=O)NC(C(C)Cl)C2OC(SC)C(O)C(O)C2O)N(C)C1 (stereo not given) [Clindamycin]    122
COc1ccnc(C[S+]([O-])c2nc3cc(OC(F)F)ccc3[nH]2)c1OC (stereo not given) [Pantoprazole]    108
COc1ncc(-c2ccc3nccc(-c4ccnnc4)c3c2)cc1NS(=O)(=O)c1ccc(F)cc1F    147
COc1cc2c(Nc3ccc(Br)cc3F)ncnc2cc1OCC1CCN(C)CC1 [Vandetanib (ZD6474)]    56.4
CO[C@H]1/C=C/O[C@@]2(C)Oc3c(C)c(O)c4c(O)c(c(/C=N/N5CCN(C6CCCC6)CC5)c(O)c4c3C2=O)NC(=O)/C(C)=C\C=C\[C@H](C)[C@H](O)[C@@H](C)[C@@H](O)[C@@H](C)[C@H](OC(C)=O)[C@@H]1C [Rifapentine]    122

// assay HCI16, entry CC1=NN(c2ccccc2)C(=O)C1 [Edaravone] , cell viability value = 113

// assay HCI16, entry CC(C)(Oc1ccc(C2CC2(Cl)Cl)cc1)C(=O)O (stereo not given) [Ciprofibrate] , cell viability value = 114

// assay HCI16, entry CCOC(=O)C1=C(C)NC(C)=C(C(=O)OC)C1c1cccc([N+](=O)[O-])c1 (stereo not given) [Nitrendipine] , cell viability value = 90.2

// assay HCI16, entry CC(C)c1c(C(=O)Nc2ccccc2)c(-c2ccccc2)c(-c2ccc(F)cc2)n1CCC(O)CC(O)CC(=O)[O-].CC(C)c1c(C(=O)Nc2ccccc2)c(-c2ccccc2)c(-c2ccc(F)cc2)n1CCC(O)CC(O)CC(=O)[O-].[Ca+2] (stereo not given) [Atorvastatin Calcium] , cell viability value = 140

// assay HCI16, entry CCC(=O)OC1(C(=O)CCl)C(C)CC2C3CCC4=CC(=O)C=CC4(C)C3(F)C(O)CC21C (stereo not given) [Clobetasol propionate] , cell viability value = 196

// assay HCI16, entry NC(=O)c1cnccn1 [Pyrazinamide] , cell viability value = 98.9

// assay HCI16, entry CN1CCC(OC(c2ccccc2)c2ccccc2)CC1.Cl [Diphenylpyraline HCl] , cell viability value = 91.7
